protocol text: self-splicing fitness, log relative to wild type (ln ratio); higher = more splicing; Tetrahymena group I intron in knt gene, E. coli kanamycin selection, DiMSum; sequences stand for … in CUCUCU…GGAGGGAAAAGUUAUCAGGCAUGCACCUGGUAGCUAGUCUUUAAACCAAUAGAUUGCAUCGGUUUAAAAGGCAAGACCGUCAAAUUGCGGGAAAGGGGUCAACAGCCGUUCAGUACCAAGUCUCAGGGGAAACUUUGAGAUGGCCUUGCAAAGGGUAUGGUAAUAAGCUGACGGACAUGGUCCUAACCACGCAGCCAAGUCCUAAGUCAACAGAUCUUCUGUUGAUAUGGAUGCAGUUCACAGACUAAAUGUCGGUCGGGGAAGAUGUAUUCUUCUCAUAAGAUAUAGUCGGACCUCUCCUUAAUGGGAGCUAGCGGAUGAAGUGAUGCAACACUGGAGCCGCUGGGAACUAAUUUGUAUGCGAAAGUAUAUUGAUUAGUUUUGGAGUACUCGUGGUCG;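 note: selection with 25 µg/mL kanamycin versus none on LB agar overnight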
condition context: 37 °C
assay endpoint: self-splicing fitness (ln)
Lab note: record the figure alone, no unit after it.

Examples from the recorded data:
Consider the sequence shown here: CCUAAGCAAUAUUACGCGCU What is its recorded self-splicing fitness (ln)?
-2.75

So what does the record say about self-splicing fitness (ln) for GUGUAGCAAUAUUACGAUUC ?
-0.738

For the sequence GCAAAGCAAUAUUACGUAGA , what self-splicing fitness (ln) is on record?
-1.13

---
Please give the measured self-splicing fitness (ln) for this sequence: GAUGAGCAAUAUUACGAUGC
-0.41

// lookup self-splicing fitness (ln) for GUCGAGCAAUAUUACGUUAC
-1.49

self-splicing fitness (ln) for GAACAGCAAUAUUACGCCCU ?
0.579

Would you kindly share the measured self-splicing fitness (ln) for GAAAAGCAAUAUUACGCUGA ?
-1.65

Fill in the blank: the reported self-splicing fitness (ln) of GCACAGCAAUAUUACGCCAU is ____.
-2.42

Recorded self-splicing fitness (ln) of AUACAGCAAUAUUACGCUCU , please.
0.358

Suppose we examine the sequence AAAAAGCAAUAUUACGCACC ; what self-splicing fitness (ln) value has been reported?
-0.602

I would be grateful if you could share the reported self-splicing fitness (ln) for GUGUAGCAAUAUUACGAUAA .
-0.508

Reported self-splicing fitness (ln), sequence AUAGAGCAAUAUUACGACGC : ____
-0.765

----------
protocol text: self-splicing fitness, log relative to wild type (ln ratio); higher = more splicing; Tetrahymena group I intron in knt gene, E. coli kanamycin selection, DiMSum; sequences stand for … in CUCUCU…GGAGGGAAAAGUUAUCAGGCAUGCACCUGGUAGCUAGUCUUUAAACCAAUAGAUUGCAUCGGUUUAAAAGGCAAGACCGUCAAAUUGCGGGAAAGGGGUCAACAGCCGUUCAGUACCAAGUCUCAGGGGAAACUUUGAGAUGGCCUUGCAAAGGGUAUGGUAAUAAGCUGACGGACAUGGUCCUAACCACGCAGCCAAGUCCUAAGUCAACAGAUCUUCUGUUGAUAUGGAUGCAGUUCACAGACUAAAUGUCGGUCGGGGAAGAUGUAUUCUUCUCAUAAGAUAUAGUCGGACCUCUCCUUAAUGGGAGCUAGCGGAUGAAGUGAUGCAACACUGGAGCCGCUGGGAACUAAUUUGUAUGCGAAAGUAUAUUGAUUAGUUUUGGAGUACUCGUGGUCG
condition context: 30 °C
Mark yes (1) for reported self-splicing fitness (ln) of -1 or greater; mark no (0) for anything smaller.

Exam item: decide whether the reported self-splicing fitness (ln) for GACCAGCAAUAUUACGAUCA is at least -1.
no (0)

Quick check, self-splicing fitness (ln) >= -1? UGUCAGCAAUAUUACGUAUC
no (0)

Reported self-splicing fitness (ln) reaches at least -1 for GAGAAGCAAUAUUACGCCGG ?
no (0)

---
For this sequence, is measured self-splicing fitness (ln) -1 or higher? UCCGAGCAAUAUUACGCCCA
no (0)

Hi team, for AGUGAGCAAUAUUACGUGUG , is the recorded self-splicing fitness (ln) at or above -1?
no (0)

Could you please find out whether AGGAAGCAAUAUUACGCUAA has self-splicing fitness (ln) that meets -1 or exceeds it?
no (0)

I'd appreciate it if you could say whether AAGAAGCAAUAUUACGAAUU has self-splicing fitness (ln) at least equal to -1.
no (0)

----------
protocol text: self-splicing fitness, log relative to wild type (ln ratio); higher = more splicing; Tetrahymena group I intron in knt gene, E. coli kanamycin selection, DiMSum; sequences stand for … in CUCUCU…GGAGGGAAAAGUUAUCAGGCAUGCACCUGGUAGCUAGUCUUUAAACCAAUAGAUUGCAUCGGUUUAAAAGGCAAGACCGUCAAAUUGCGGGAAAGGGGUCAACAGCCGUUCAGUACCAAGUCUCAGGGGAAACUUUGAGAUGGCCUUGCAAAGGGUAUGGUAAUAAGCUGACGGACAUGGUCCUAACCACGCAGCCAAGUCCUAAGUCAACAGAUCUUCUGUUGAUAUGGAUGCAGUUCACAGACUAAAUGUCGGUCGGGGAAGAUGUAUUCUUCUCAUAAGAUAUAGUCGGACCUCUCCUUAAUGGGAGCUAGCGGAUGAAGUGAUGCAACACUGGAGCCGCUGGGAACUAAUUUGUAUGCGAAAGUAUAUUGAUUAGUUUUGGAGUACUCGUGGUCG
condition context: 30 °C
assay endpoint: self-splicing fitness (ln)
Write the number on its own, no unit after it.

Below: 2 sequences and their reported self-splicing fitness (ln).
// lookup self-splicing fitness (ln) for UCAUAGCAAUAUUACGUCUU
-3.28

Dear colleague, I am looking for the recorded self-splicing fitness (ln) of the following sequence: UCUUAGCAAUAUUACGUUGA
-2.76

More entries:
# lookup: self-splicing fitness (ln) of UUUAAGCAAUAUUACGAGAA
-1.62

For the sequence CAAUAGCAAUAUUACGGGAA , what self-splicing fitness (ln) is on record?
-3.21

Requested field: self-splicing fitness (ln). Item: GAUAAGCAAUAUUACGCACU
-1.21

Need self-splicing fitness (ln), item UUGAAGCAAUAUUACGAAUG
-0.746

What does the record list as self-splicing fitness (ln) for CUUUAGCAAUAUUACGGUAU ?
-4.49

// query self-splicing fitness (ln) value for entry UAGUAGCAAUAUUACGACCU
-0.902

What value of self-splicing fitness (ln) has been recorded for this entry: CACGAGCAAUAUUACGGAGG
-4.5

May I ask what self-splicing fitness (ln) has been recorded for GAUCAGCAAUAUUACGGGGA ?
-1.61

Return reported self-splicing fitness (ln); argument: CGAGAGCAAUAUUACGGCUC
-1.09

----------
protocol text: self-splicing fitness, log relative to wild type (ln ratio); higher = more splicing; Tetrahymena group I intron in knt gene, E. coli kanamycin selection, DiMSum; sequences stand for … in CUCUCU…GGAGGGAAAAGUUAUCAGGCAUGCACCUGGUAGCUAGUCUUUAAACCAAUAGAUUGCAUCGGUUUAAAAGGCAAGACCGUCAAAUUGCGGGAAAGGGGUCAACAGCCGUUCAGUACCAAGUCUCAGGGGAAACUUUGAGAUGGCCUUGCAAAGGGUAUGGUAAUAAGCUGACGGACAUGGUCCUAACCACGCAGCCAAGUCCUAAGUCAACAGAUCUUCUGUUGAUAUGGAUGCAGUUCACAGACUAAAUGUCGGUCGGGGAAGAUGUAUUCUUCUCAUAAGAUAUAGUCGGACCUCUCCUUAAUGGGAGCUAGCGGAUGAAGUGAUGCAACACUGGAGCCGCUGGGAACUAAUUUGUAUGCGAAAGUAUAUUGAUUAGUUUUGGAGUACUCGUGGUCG
condition context: 37 °C
Below: a set of entries, each annotated with reported self-splicing fitness (ln).
When you answer, write just the number.

A selection of reference data follows.
# input sequence: GCCAAGCAAUAUUACGACCG ; wanted: its self-splicing fitness (ln)
-2.01

# get_value(readout='self-splicing fitness (ln)', item= UUGCAGCAAUAUUACGUUGC )
-2.86

Quick one: self-splicing fitness (ln) of GAUCAGCAAUAUUACGGGAC ?
-0.976

Quick check: self-splicing fitness (ln) of UUAUAGCAAUAUUACGUCAA ?
-0.961

self-splicing fitness (ln) for CUUGAGCAAUAUUACGUGCG ?
-0.809

Could you tell me which self-splicing fitness (ln) is on file for GCGUAGCAAUAUUACGGUUA ?
-0.119

Next, consider the following sequence.
Give the measured self-splicing fitness (ln) of AGGAAGCAAUAUUACGAUUC .
-2.53

----------
protocol text: self-splicing fitness, log relative to wild type (ln ratio); higher = more splicing; Tetrahymena group I intron in knt gene, E. coli kanamycin selection, DiMSum; sequences stand for … in CUCUCU…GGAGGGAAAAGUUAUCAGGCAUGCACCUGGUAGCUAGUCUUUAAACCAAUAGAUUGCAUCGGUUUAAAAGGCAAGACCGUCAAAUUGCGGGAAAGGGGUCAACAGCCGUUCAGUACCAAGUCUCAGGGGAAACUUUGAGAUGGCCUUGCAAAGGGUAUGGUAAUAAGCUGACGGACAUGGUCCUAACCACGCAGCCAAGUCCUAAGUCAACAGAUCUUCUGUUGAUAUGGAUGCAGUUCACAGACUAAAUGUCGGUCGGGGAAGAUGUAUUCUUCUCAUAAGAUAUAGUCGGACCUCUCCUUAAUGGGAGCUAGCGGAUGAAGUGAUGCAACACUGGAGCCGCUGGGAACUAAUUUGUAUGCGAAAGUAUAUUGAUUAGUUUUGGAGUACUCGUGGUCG
condition context: 37 °C
List of self-splicing fitness (ln) values.
In your answer, state the number alone without any accompanying words.

Take a look at these entries with their results.
Could you share which self-splicing fitness (ln) value was measured for ACACAGCAAUAUUACGGUUC ?
-2.03

I have this sequence here, CCUCAGCAAUAUUACGGCGC , and I need its recorded self-splicing fitness (ln).
-2.45

Quick check: self-splicing fitness (ln) of UUAUAGCAAUAUUACGAGCU ?
-2.16

What value of self-splicing fitness (ln) has been recorded for this entry: GCUAAGCAAUAUUACGAUUU
0.0848

Find the recorded self-splicing fitness (ln) belonging to CGACAGCAAUAUUACGGCAA and report it.
-1.58

What does the data say about its self-splicing fitness (ln)? Entry: GUUAAGCAAUAUUACGUGUU
-1.11

Below: the item to evaluate.
Value lookup for self-splicing fitness (ln); key = GUUUAGCAAUAUUACGGAUU
-0.737
